# subject of test: human ROR1 on stably transfected cell strain MCF7-hROR1 clone 2G2 (human, UniProt Q01973 30-406)
# test description: flow cytometry (FACS) on MCF7-hROR1 clone 2G2 cells, 5-fold dilutions from 100 nM, Alexa Fluor 647 anti-human IgG secondary antibody, four-parameter fit
property: EC50 (nM)

1) ADC-L1-19-P1-8 (antibody, human IgG1, kappa, V domains shown, drug-linker L1-19-P1 on cysteine thiols after TCEP reduction; positions not given; DAR 7.7 for the whole conjugate, Antibody-drug conjugate) VH: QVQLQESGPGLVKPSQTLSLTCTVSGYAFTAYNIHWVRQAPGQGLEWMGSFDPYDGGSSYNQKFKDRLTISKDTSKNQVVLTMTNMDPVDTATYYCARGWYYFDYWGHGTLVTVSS VL: DIVMTQTPLSLPVTPGEPASISCRASKSISKYLAWYQQKPGQAPRLLIYSGSTLQSGIPPRFSGSGYGTDFTLTINNIESEDAAYYFCQQHDESPYTFGEGTKVEIKR = 0.34
2) ADC-L1-19-P1-10 (antibody, human IgG1, kappa, V domains shown, drug-linker L1-19-P1 on cysteine thiols after TCEP reduction; positions not given; DAR 8.0 for the whole conjugate, Antibody-drug conjugate) VH: QVQLRESGPGLVKPSETLSLTCTVSGFDISSYYMSWVRQPPGKGLEWIGAIGISGNAYYASWAKSRVTISRDTSKNQFSLKLSSVTAADTAVYYCARDHPTYGMDLWGPGTLVTVSS VL: SYELTQPPSVSVAPGKTARITCEGNNIGSKAVHWYQQKPGQAPVLVIYDDDERPSGIPERFSGSNSGNTATLTISRVEAGDEADYYCQVWDSSAYVFGGGTKLTVLR = 0.57
